Test system: erlotinib-resistant H1975 cells
Assay: cells
Format: cell-based
Conditions: Homo sapiens, NCI-H1975, 72 h, read-out: IC50 (cell viability)
Experimental: The cells were plated at 5×10^4/ml in 100 μL of culture medium in a 96-well microtiter plate, followed by incubation with drugs. Cell viability after the treatment was determined using 3-(4,5-dimethylthiazol-2-yl)-5(3-carboxymethoxy-phenyl)-2-(4-sulfophenyl)-2H-tetrazolium (MTS) assay (Promega, Madison, Wis.) per the manufacturer's instruction. Absorbance was measured at 490 nm for MTS assay with an enzyme-linked immunosorbent assay plate reader from MTX Lab Systems, Inc. (Vienna, Va.). […]
pIC50: −log10 of the molar value.
Assay Endpoint: pIC50

> print(dat)
                                   compound  value.measured
1  CCN(CC)CCCC(C)Nc1ccnc2cc(Cl)ccc12 (stereo not shown) [chloroquine]            4.12

Where do the numbers come from? From patent US20150209364A1.
